Cited source for all entries: the supplement of paper PMC11061612

# combination Emax annotations
# Tested on: OVKATE (Ovarian Carcinoma)
# Test Name: combination Emax (second highest fraction inhibited in the dose matrix, 72 h); higher = more inhibition; extreme values may be limits of the assay
Reply: number alone, nothing else.

A selection of reference data follows.
{"columns": ["Compound", "combination Emax"],
 "data": [
  ["CN(CCO)CC[C@H](CSc1ccccc1)Nc1ccc(S(=O)(=O)NC(=O)c2ccc(N3CCC([C@@H](O)c4ccccc4-c4ccc(Cl)cc4)CC3)cc2)cc1S(=O)(=O)C(F)(F)F [AZD4320] + CS(=O)(=O)CCNCc1ccc(-c2ccc3ncnc(Nc4ccc(OCc5cccc(F)c5)c(Cl)c4)c3c2)o1 [Lapatinib] (first compound max 1 µM, 7x7, partner max 10 µM)", 0.677],
  ["C[C@@H]1COCCN1c1cc(C2([S@](C)(=N)=O)CC2)nc(-c2ccnc3[nH]ccc23)n1 [AZD6738] + O=C(c1cc(Cc2n[nH]c(=O)c3ccccc23)ccc1F)N1CCN(C(=O)C2CC2)CC1 [Olaparib] (first compound max 10 µM, 7x7, partner max 10 µM)", 0.305]
]}

Problem: Note down combination Emax recorded for Cn1cnc2c(F)c(Nc3ccc(Br)cc3Cl)c(C(=O)NOCCO)cc21 [Selumetinib] + CCN(CCO)CCCOc1ccc2c(Nc3cc(CC(=O)Nc4cccc(F)c4)[nH]n3)ncnc2c1 [AZD2811] (first compound max 10 µM, 7x7, partner max 1 µM)
Solution: 0.176

Problem: Tell us which combination Emax value is on record for N#Cc1cnc(Nc2cc(NC[C@H]3CNCCO3)c(C(F)(F)F)cn2)cn1 [SRA737] + CCc1c2c(nc3ccc(O)cc13)-c1cc3c(c(=O)n1C2)COC(=O)[C@]3(O)CC [SN-38] (first compound max 10 µM, 7x7, partner max 0.3 µM)
Solution: 0.138

Problem: Give combination Emax for CCc1c2c(nc3ccc(O)cc13)-c1cc3c(c(=O)n1C2)COC(=O)[C@]3(O)CC [SN-38] + CN(C)CCCOc1ccc(-c2ccc3ncc4c(c3c2)n(C2CCOCC2)c(=O)n4C)cn1 [AZD0156] (first compound max 0.3 µM, 7x7, partner max 1 µM)
Solution: 0.224

Problem: Please report combination Emax for the following compound: Cc1c2c(nn1C)CSCc1cc(n(C)n1)CSc1cc(c3ccccc3c1)OCCCc1c(C(=O)O)n(C)c3c-2c(Cl)ccc13 [AZD5991] + CCN(CCO)CCCOc1ccc2c(Nc3cc(CC(=O)Nc4cccc(F)c4)[nH]n3)ncnc2c1 [AZD2811] (first compound max 1 µM, 7x7, partner max 1 µM)
Solution: 0.253

Problem: Note down combination Emax recorded for NC1(C(=O)N[C@@H](CCO)c2ccc(Cl)cc2)CCN(c2ncnc3[nH]ccc23)CC1 [Capivasertib] + CC(C)n1c(=O)n(C)c2cnc3cc(F)c(-c4ccc(OCCCN5CCCCC5)nc4)cc3c21 [AZD1390] (first compound max 10 µM, 7x7, partner max 0.3 µM)
Solution: 0.247
